Assay: Human HepG2 cell viability assay in 384 well format
Type: toxicity, cell-based
Set-up: dose 125 nL, time 70.5 hour; concentration not given beside the values
Conditions: HepG2 cells, read-out: Inhibition
recorded endpoint: cytotoxicity at 70.5 h (%)
Kindly provide the numeric value in % only, without the unit symbol.

[[record]]
compound = "CCCS(=O)(=O)NC(=O)c1ccc(-n2nc(C)cc2C)cc1"
recorded_endpoint = "cytotoxicity at 70.5 h"
endpoint_value = -6.42

[[record]]
compound = "O=C(c1cc2c(s1)CCN2C(=O)C1CC1)N1CCCC1"
recorded_endpoint = "cytotoxicity at 70.5 h"
endpoint_value = -4.7

[[record]]
compound = "O=C1CC[C@]2(CC[C@@H](NCc3ccoc3)CC2)N1"
recorded_endpoint = "cytotoxicity at 70.5 h"
endpoint_value = -2.86

[[record]]
compound = "O=C(NC1CCCCC1)N1C[C@@H]2OCCN(C(=O)c3ccco3)[C@@H]2C1"
recorded_endpoint = "cytotoxicity at 70.5 h"
endpoint_value = 0.645

[[record]]
compound = "CCc1nc(CN2CCN(C(=O)c3cnccn3)CC2)cs1"
recorded_endpoint = "cytotoxicity at 70.5 h"
endpoint_value = -5.66


Which cytotoxicity at 70.5 h is listed for O=C(NCC(=O)N1CCC2(CC1)OCCO2)c1ccoc1 ? -7.96

What measured cytotoxicity at 70.5 h goes with CCC(CNC(=O)COC)Oc1cccc(F)c1 (stereo unspecified) ? 14.9

Values compiled from ChEMBL document CHEMBL3507680.
